System: A673/TR/shEF
PROCEDURE_TEXT: cell viability (LOESS-normalised, relative to median of negative controls) (log2 ratio); higher = more viable cells (less compound effect), active = hit call of the paper (over 3 MAD below the median)
DETAILS: 0.308 µM; library screen: screen3; EWS-FLI1 expression: high (no doxycycline); treatment time: 72 h
In all, about 3,200 compounds went through this assay and about 300 (9.4%) showed activity. For the sample, actives were picked, then their nearest neighbours and some compounds at random.
# key: entry, value: cell viability (log2)
Response field accepts a number only; no unit should be typed.

Task: Name the recorded cell viability (log2) for CCC1=C[C@@H]2CN(C1)Cc1c([nH]c3ccccc13)[C@@](C(=O)OC)(c1cc3c(cc1OC)N(C)[C@H]1[C@@](O)(C(=O)OC)[C@H](OC(C)=O)[C@]4(CC)C=CCN5CC[C@]31[C@@H]54)C2 .
Result: -3.96

New cases:
Task: Name the recorded cell viability (log2) for O=C(O)C[C@H](O)C[C@H](O)/C=C/c1c(C2CC2)nc2ccccc2c1-c1ccc(F)cc1 .
Result: -0.114

Task: Name the recorded cell viability (log2) for FC(F)(F)c1ccc(/C=C/c2nc(COc3ccc(CCCCn4ccnn4)cc3)co2)cc1 .
Result: -0.568

Task: Name the recorded cell viability (log2) for NCCCCCC(=O)O .
Result: 0.0847

---

Test system: A673/TR/shEF
PROCEDURE_TEXT: cell viability (LOESS-normalised, relative to median of negative controls) (log2 ratio); higher = more viable cells (less compound effect), active = hit call of the paper (over 3 MAD below the median)
DETAILS: 2.5 µM; library screen: screen1; EWS-FLI1 expression: high (no doxycycline); treatment time: 72 h
Out of some 3,200 compounds screened, about 300 (9.4%) showed activity. This excerpt belongs to a sample that is enriched for actives.
# if measured cell viability (log2) < 0.1: 1.0  # else: 0.0

Solved entries:
Task: Consider CC(=O)OC1CCC2(C)C(CCC3C2CC(=O)C2(C)C3CC3OC4(CCC(C)CO4)C(C)C32)C1 (stereo unspecified) . Does its cell viability (log2) lie strictly below 0.1?
Result: 1.0

Task: Consider CS(=O)(=O)Nc1ccc([N+](=O)[O-])cc1Oc1ccccc1 . Does its cell viability (log2) lie strictly below 0.1?
Result: 0.0

Task: Consider CC1(C)C=Cc2c(cc3occ(-c4ccc5c(c4)OCO5)c(=O)c3c2O)O1 . Does its cell viability (log2) lie strictly below 0.1?
Result: 1.0

Task: Consider CCOc1ccc(C(=O)Nc2cccc(OC)c2)cc1Cl . Does its cell viability (log2) lie strictly below 0.1?
Result: 0.0

Task: Consider CCCCOc1ccc(CC(=O)NO)cc1 . Does its cell viability (log2) lie strictly below 0.1?
Result: 0.0

From here, focus on the item given below.
Task: Consider CC(C)N1C(=O)C(=Cc2ccc(F)cc2)SC1=S . Does its cell viability (log2) lie strictly below 0.1?
Result: 0.0

---

System: A673/TR/shEF
PROCEDURE_TEXT: cell viability (LOESS-normalised, relative to median of negative controls) (log2 ratio); higher = more viable cells (less compound effect), active = hit call of the paper (over 3 MAD below the median)
DETAILS: 0.25 µM; library screen: screen1; EWS-FLI1 expression: high (no doxycycline); treatment time: 72 h
Among all 3,200 compounds or so, about 300 (9.4%) showed activity. This excerpt belongs to a sample that is enriched for actives.
QUANTITY: cell viability (log2)

Guide cases for cell viability (log2), answers given:
Task: Name the recorded cell viability (log2) for CC1=C(C(=O)OC2CCCC2)C(c2coc3ccccc3c2=O)C2=C(CC(C)(C)CC2=O)N1 (stereo not given) .
Result: 0.0783 (inactive)

Task: Name the recorded cell viability (log2) for CC(C)CCC[C@@H](C)[C@H]1CC[C@H]2[C@@H]3CC[C@H]4C[C@H](O)CC[C@]4(C)[C@H]3CC[C@]12C .
Result: 0.14 (inactive)

Task: Name the recorded cell viability (log2) for COc1c(C=O)c(O)cc2c1C(=O)c1ccccc1C2=O .
Result: 0.118 (inactive)

Task: Name the recorded cell viability (log2) for COC(=O)c1c(C)c2c(c(C)c1OC(C)=O)OC(=O)c1c(C)c(Cl)c(OC(C)=O)c(Cl)c1O2 .
Result: 0.0638 (inactive)

Task: Name the recorded cell viability (log2) for O=C(Cc1ccccc1)NO .
Result: 0.111 (inactive)

For the next question, use this compound.
Task: Name the recorded cell viability (log2) for O=C(O)C1CC(C2CCCCN2)CN2CCCCC12 (stereo not given) .
Result: 0.039 (inactive)
